Provenance of the data: the supplement of paper PMC9170038

System: MS2 coat protein
Assay: apparent KD of MS2 coat protein; designed switch direction (-1 OFF switch, 1 ON switch): 1; higher = weaker reporter binding
Details: input ligand: none
Form field: apparent KD of MS2 coat protein (one value per entry).
Write the number in µM without appending the unit.

# Input sequence, apparent KD of MS2 coat protein [µM]
measured = [
    ("GGUGCCAAAUAAGCCUACAUGAGGAUCACCCAUGUAUGUAGGCAGGAUAUCGUUUGCAAAGCAAACGAGAAGGGCUGAGGCACC [Mat - Same State NG 3 - JL Mod - D53] (Eterna round: R96, puzzle: Same State NG 3)", 0.081),
    ("GAGAGAGGGUGAGGAUAUGGAGUAAUAAUGAUACCAGAAGGCACAGACAUGAGGAUCACCCAUGUGGGAAUAAUCCAGAGAGAG [Parity 7 - Jieux - Same State NG 1] (Eterna round: R96, puzzle: Same State NG 1)", 0.264),
    ("GUUACAUGAGGAUCACCCAUGUAUGUGUGGGAGUAAGUGUCUUAGGAUAUCUGAUAUUUAAUUUAAGAGAAGGAAGAUUGUUGU [JMF's solution 29] (Eterna round: R96, puzzle: Same State NG 3)", 0.0855),
]

Lab book: apparent KD of MS2 coat protein of GAGGGACAGACCAACAUGAGGAUCACCCAUGUCCUCGCUGGUCAGGAUAUCCCGCCAACAGGCGAGGAGAAGGGACGGUGAACC (Eterna round: R96, puzzle: Same State NG 3) noted as 0.724
